Sourced from ChEMBL document CHEMBL3272140

Kindly supply the reported Activity values for the records listed here.
system: Sarcoma-180; test: Antitumor activity against mouse ascites Sarcoma 180 cells allografted in ddN mouse assessed as percentage of total packed cell volume ratio at 100 mg/kg/day for 5 days administered 24 hrs after tumor inoculation measured 7th day after tumor inoculation; format: functional
Give bare numbers, in %.

COc1cc(/C=C2\CCC/C(=C\c3cc(OC)c(O)c(OC)c3)C2=O)cc(OC)c1O: 66

Below is a list of molecules. For each, state its recorded Activity.
1. COc1cc(/C=C2\CC/C(=C\c3ccc(OCc4ccccc4)c(OC)c3)C2=O)ccc1OCc1ccccc1
2. COc1cc(/C=C2\CC(C)C/C(=C\c3cc(OC)c(O)c(OC)c3)C2=O)cc(OC)c1O (stereo not given)
3. COc1cc(C=C2C(=O)c3ccccc3C2=O)ccc1O
4. COc1cc(/C=C2\CCC/C(=C\c3ccc(O)c(OC)c3)C2=O)ccc1O [CYCLOVALONE]
5. COc1cc(/C=C2\CCC(C)/C(=C\c3cc(OC)c(OC)c(OC)c3)C2=O)cc(OC)c1OC (stereo not given)
6. COc1cc(/C=C2\CC(C)C/C(=C\c3ccc(OCc4ccccc4)c(OC)c3)C2=O)ccc1OCc1ccccc1 (stereo not given)
7. COc1cc(/C=C2\CCC(C)/C(=C\c3ccc(OCc4ccccc4)c(OC)c3)C2=O)ccc1OCc1ccccc1 (stereo not given)

[66, 66, 0, 66, 66, 66, 66]

The following molecules each have a reported value; give each one's Activity.
1. O=C1C(=C/C=C/c2ccccc2)C(=O)c2ccccc21
2. O=C1CC(=O)c2ccccc21

1: 66; 2: 11

----------
tested on: Sarcoma-180; assay: Antitumor activity against mouse ascites Sarcoma 180 cells allografted in ddN mouse assessed as percentage of total packed cell volume ratio at 100 mg/kg/day for 5 days administered 24 hrs after tumor inoculation measured 7th day after tumor inoculation; format: functional
Can you tell me Activity for the items I'm about to list?
One number for each entry, in %.

Solved cases (2 shown):
COc1ccc(C=C2C(=O)c3ccccc3C2=O)cc1O: 41
COc1cc(/C=C2\CC(C)C/C(=C\c3cc(OC)c(OCc4ccccc4)c(OC)c3)C2=O)cc(OC)c1OCc1ccccc1 (centres undefined): 66

Respectfully, I request Activity for each entry included below.
1. COc1cc(/C=C/C=C2C(=O)c3ccccc3C2=O)ccc1O
2. COc1cc(/C=C2\CCC(C)/C(=C\c3cc(OC)c(O)c(OC)c3)C2=O)cc(OC)c1O (centres undefined)

66
66
